Target: NK3 receptor (Homo sapiens, UniProt P29371)
Sequence (P29371 1-465): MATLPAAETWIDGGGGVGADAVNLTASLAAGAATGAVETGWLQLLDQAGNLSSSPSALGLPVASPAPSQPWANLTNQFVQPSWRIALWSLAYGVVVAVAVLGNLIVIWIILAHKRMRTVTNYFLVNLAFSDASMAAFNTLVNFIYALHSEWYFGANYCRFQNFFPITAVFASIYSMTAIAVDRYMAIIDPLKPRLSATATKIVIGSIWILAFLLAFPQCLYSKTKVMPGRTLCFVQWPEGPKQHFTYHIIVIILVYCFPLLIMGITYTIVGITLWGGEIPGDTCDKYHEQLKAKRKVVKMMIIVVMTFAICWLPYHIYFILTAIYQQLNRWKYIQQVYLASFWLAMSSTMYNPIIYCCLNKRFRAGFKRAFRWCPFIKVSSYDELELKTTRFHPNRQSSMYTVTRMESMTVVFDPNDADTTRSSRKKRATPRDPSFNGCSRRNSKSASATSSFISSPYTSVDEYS
Readout type: IC50 (µM)

Below, each entry is followed by its recorded IC50 result.
{"columns": ["Compound", "Units symbol", "IC50"],
 "data": [
  ["CC(C)(C)OC(=O)N[C@@H](Cc1ccccc1)C(=O)NC(C)(Cc1ccccc1)C(=O)NCC1CCC(C(=O)O)CC1 (mixture of isomers)", "µM", 0.719],
  ["CC(C)(C)OC(=O)NC(Cc1cccc(Cl)c1)C(=O)N[C@](C)(Cc1ccccc1)C(N)=O (mixture of isomers)", "µM", 0.904],
  ["CC(C)(C)OC(=O)N[C@@H](Cc1ccccc1)C(=O)NC(C)(Cc1ccccc1)C(=O)NCCCc1ccc(O)cc1 (mixture of isomers)", "µM", 0.088],
  ["CC(C)(C)OC(=O)NC(CNC(Cc1ccccc1)C(N)=O)Cc1ccccc1 (stereo not shown)", "µM", 4.33],
  ["CC(Cc1ccccc1)(NC(=O)[C@H](Cc1ccccc1)NC(=O)OCc1ccc(Cl)c(Cl)c1)C(N)=O (mixture of isomers)", "µM", 1.53]
]}

a = CC(C)(C)OC(=O)N[C@@H](Cc1ccccc1)C(=O)NC(C)(Cc1ccccc1)C(=O)NCCCCCc1ccccc1 (mixture of isomers)
b = CC(C)(C)OC(=O)N[C@@H](Cc1ccccc1)C(=O)NC(C)(Cc1ccccc1)C(=O)NCCC1CCCC1 (mixture of isomers)
I'd appreciate it if you could identify which of a and b has the greater IC50. State the label of the item chosen.
b
(b: 0.129 µM, a: 0.077 µM)

* * *

Biological target: NK3 (Cavia porcellus)
Sequence (P30098 1-440): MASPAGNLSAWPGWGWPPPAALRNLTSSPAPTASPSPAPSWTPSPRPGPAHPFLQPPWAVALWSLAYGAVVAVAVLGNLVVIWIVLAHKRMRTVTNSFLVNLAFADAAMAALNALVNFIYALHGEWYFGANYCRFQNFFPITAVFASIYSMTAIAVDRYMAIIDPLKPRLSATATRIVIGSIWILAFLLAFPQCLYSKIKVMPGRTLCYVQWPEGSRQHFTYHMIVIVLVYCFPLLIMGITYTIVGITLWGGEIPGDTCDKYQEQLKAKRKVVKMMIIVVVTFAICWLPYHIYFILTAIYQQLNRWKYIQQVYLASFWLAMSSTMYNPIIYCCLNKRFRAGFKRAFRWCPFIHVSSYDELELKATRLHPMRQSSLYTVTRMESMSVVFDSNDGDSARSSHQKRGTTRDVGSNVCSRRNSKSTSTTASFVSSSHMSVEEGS
Test: guinea pig medial habenula assay (block of senktide-induced increases in firing rate, brain slice)
Settings: NK3 antagonist activity; mean equilibrium constant against senktide; brain slice in vitro; read-out: Guinea Pig Medial Habenula (Ke)
Readout type: Kd (µM)
# number only, unit µM dropped from output

Kd of `CC(C)(C)OC(=O)N[C@@H](Cc1ccccc1)C(=O)N[C@](C)(Cc1ccccc1)C(=O)NCCCCCCCCC(N)=O` , assay on NK3 (Cavia porcellus), is 0.025
